All values here come from patent US20090209576A1.

# Protocol text: physchem
# Particulars: unionized water, water, thermodynamic from solid
Recorded endpoint: solubility

                                   molecule        value
0  COC(=O)C(c1ccccc1Cl)N1CCc2sccc2C1 (stereo in doubt) [Camphorsulfonate (polymorphic form A1)]  ~4000 µg/mL
